biological target: NAMPT (Homo sapiens); assay: TR-FRET Binding Assay of NAMPT with PRPP; details: 2 nM NAMPT, 2 nM probe, 200 µM PRPP and 2.5 mM ATP, equilibrated 16 hours
pIC50: −log10 of the molar value.
recorded endpoint: pIC50

CCC(C)(C)C(=O)N1CC(c2ccc(NC(=O)N3CC(c4cccnc4)C3)cc2)C1 [Example 204]	9.46
O=C(CC1CCCC1)N1CC(Oc2ccc(NC(=O)N3CC(c4cccnc4)C3)cc2)C1 [Example 153]	9.36
CC(C)CCC(=O)N1CCC(c2ccc(NC(=O)N3CC(c4cccnc4)C3)cc2)CC1 [Example 166]	9.47
O=C(CC1C[C@@H]2CC[C@H]1C2)N1CCC(c2ccc(NC(=O)N3CC(c4cccnc4)C3)cc2)CC1 (stereo partly shown) [Example 165]	9.41

---

biological target: NAMPT (Homo sapiens, UniProt P43490); test: TR-FRET Binding Assay of NAMPT with PRPP; details: 2 nM NAMPT, 2 nM probe, 200 µM PRPP and 2.5 mM ATP, equilibrated 16 hours
Sequence (P43490 whole entry): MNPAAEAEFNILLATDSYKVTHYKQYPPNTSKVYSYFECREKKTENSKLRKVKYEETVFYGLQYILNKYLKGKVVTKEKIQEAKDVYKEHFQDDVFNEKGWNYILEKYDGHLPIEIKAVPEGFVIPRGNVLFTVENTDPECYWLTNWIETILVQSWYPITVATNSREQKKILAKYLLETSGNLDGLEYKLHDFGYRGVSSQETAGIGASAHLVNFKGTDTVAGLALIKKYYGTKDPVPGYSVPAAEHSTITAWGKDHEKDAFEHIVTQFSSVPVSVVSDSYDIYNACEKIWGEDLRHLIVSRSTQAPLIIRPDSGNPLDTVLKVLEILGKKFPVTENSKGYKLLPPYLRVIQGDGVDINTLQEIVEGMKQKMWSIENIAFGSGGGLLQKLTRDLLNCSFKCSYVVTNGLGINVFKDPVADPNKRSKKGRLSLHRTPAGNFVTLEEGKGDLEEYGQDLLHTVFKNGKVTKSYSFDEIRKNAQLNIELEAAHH
recorded endpoint: IC50 (nM)

Take a look at these entries with their results.
Cc1ccsc1C(=O)N1CCC(c2ccc(NC(=O)N3CC(c4cccnc4)C3)cc2)C1 (stereo not drawn)	0.196
O=C(Nc1ccc(C2CN(C(=O)c3ccco3)C2)cc1)N1CC(c2cccnc2)C1	0.333
O=C(Nc1ccc(O[C@@H]2CCN(C(=O)c3ccsc3)C2)cc1)N1CC(c2cccnc2)C1	0.293
O=C(Nc1ccc(C2CCN(C(=O)c3ccccc3)CC2)cc1)N1CC(c2cccnc2)C1	0.222
O=C(Nc1ccc(OC2CCN(C(=O)c3cccs3)CC2)cc1)N1CC(c2cccnc2)C1	0.209
O=C(Nc1ccc(C2CN(C(=O)C3CC3)C2)cc1)N1CC(c2cccnc2)C1	0.596

1 = CC1CC1C(=O)N1CC(Oc2ccc(NC(=O)N3CC(c4cccnc4)C3)cc2)C1 (stereo not drawn)
2 = CCC(=O)N1CC(Oc2ccc(NC(=O)N3CC(c4cccnc4)C3)cc2)C1
Between the entries labeled 1 and 2 , whose measured IC50 is lower? Pick one and reply with its label. 1

1 = CCC(=O)N1CCC(c2ccc(NC(=O)N3CC(c4cccnc4)C3)cc2)C1 (stereo not drawn)
2 = CC1CC1C(=O)N1CC(c2ccc(NC(=O)N3CC(c4cccnc4)C3)cc2)C1 (stereo not drawn)
Of the two listed items, which has the higher IC50? First: 1 Second: 2 Pick one and reply with its label. 2
(2: 0.356 nM, 1: 0.204 nM)

1 = CCC(C)CC(=O)N1CCC(c2ccc(NC(=O)N3CC(c4cccnc4)C3)cc2)CC1 (stereo not drawn)
2 = O=C(Nc1ccc(C2CCN(C(=O)c3ccoc3)C2)cc1)N1CC(c2cccnc2)C1 (stereo not drawn)
Of the two listed items, which has the higher IC50? First: 1 Second: 2 Pick one and reply with its label. 1

1 = CC(C)(C)CCN1CC(c2ccc(NC(=O)N3CC(c4cccnc4)C3)cc2)C1
2 = Cc1noc(C)c1C(=O)N1CC(Oc2ccc(NC(=O)N3CC(c4cccnc4)C3)cc2)C1
Between the entries labeled 1 and 2 , whose measured IC50 is lower? Pick one and reply with its label. 1

---

target: NAMPT (Homo sapiens); test: Time-Resolved Fluorescence Resonance Energy Transfer (TR-FRET) Binding Assay of NAMPT; conditions: 6.8 nM NAMPT, 200 nM probe, equilibrated 3 hours, no substrates
pIC50: −log10 of the molar value.
recorded endpoint: pIC50

Take a look at these entries with their results.
CCC(C)CC(=O)N1CCC(Oc2ccc(NC(=O)N3CC(c4cccnc4)C3)cc2)CC1 (stereo not drawn)	7.11
CC(C)(C)C(=O)N1CC(Oc2ccc(NC(=O)N3CC(c4cccnc4)C3)cc2)C1	7.52
CCOCC(=O)N1CCC(Oc2ccc(NC(=O)N3CC(c4cccnc4)C3)cc2)CC1	7.03
CC1CC1C(=O)N1CC(c2ccc(NC(=O)N3CC(c4cccnc4)C3)cc2)C1 (stereo not drawn)	6.89
CCC(=O)N1CC(c2ccc(NC(=O)N3CC(c4cccnc4)C3)cc2)C1	6.77

a = Cn1cccc1C(=O)N1CCC(Oc2ccc(NC(=O)N3CC(c4cccnc4)C3)cc2)CC1
b = CC(C)(C)C(=O)N1CCC(Oc2ccc(NC(=O)N3CC(c4cccnc4)C3)cc2)CC1
Of the two listed items, which has the higher pIC50? First: a Second: b Pick one and reply with its label. a
(a: 7.56, b: 7.35)

---

target: NAMPT (Homo sapiens, UniProt P43490); experiment: Time-Resolved Fluorescence Resonance Energy Transfer (TR-FRET) Binding Assay of NAMPT; conditions: 6.8 nM NAMPT, 200 nM probe, equilibrated 3 hours, no substrates
recorded endpoint: IC50 (nM)

CC[C@H](C)C(=O)N1CC(c2ccc(NC(=O)N3CC(c4cccnc4)C3)cc2)C1	35.3

a = COCC(=O)N1CC(Oc2ccc(NC(=O)N3CC(c4cccnc4)C3)cc2)C1
b = O=C(Nc1ccc(OC2CN(C(=O)c3cncs3)C2)cc1)N1CC(c2cccnc2)C1
Between the entries labeled a and b , whose measured IC50 is lower? Pick one and reply with its label. b
(b: 25.6 nM, a: 145 nM)

---

Molecular target: NAMPT (Homo sapiens, UniProt P43490)
Assay: TR-FRET Binding Assay of NAMPT with PRPP
Settings: 2 nM NAMPT, 2 nM probe, 200 µM PRPP and 2.5 mM ATP, equilibrated 16 hours
Protocol: Time-Resolved Fluorescence Resonance Energy Transfer (TR-FRET) Binding Assay of NAMPT with PRPP Compound handling and data processing were identical to the assay in the absence of substrates (above). Final concentrations were 1× assay buffer, 2% DMSO, 2 nM NAMPT, 2 nM probe, 1 nM Tb-anti-His antibody (Invitrogen #PV5895), 200 µM PRPP and 2.5 mM ATP. Reactions were equilibrated for 16 hours prior to measurement to allow for potential enzymatic modification of test compounds.
pIC50: −log10 of the molar value.
recorded endpoint: pIC50

Take a look at these entries with their results.
O=C(Nc1ccc(C2CCN(CC3CCCC3)CC2)cc1)N1CC(c2cccnc2)C1	9.65
O=C(CC1C[C@@H]2CC[C@H]1C2)N1CCC(c2ccc(NC(=O)N3CC(c4cccnc4)C3)cc2)C1 (stereo partly shown)	9.52

P = CC(C)(C)OC(=O)N1CC(Oc2ccc(NC(=O)N3CC(c4cccnc4)C3)cc2)C1
Q = O=C(Nc1ccc(OC2CN(C(=O)[C@H]3CCCO3)C2)cc1)N1CC(c2cccnc2)C1
Of the two listed items, which has the higher pIC50? First: P Second: Q Pick one and reply with its label. Q

---

biological target: UniProt:P43490; test: Time-Resolved Fluorescence Resonance Energy Transfer (TR-FRET) Binding Assay of NAMPT; details: 6.8 nM NAMPT, 200 nM probe, equilibrated 3 hours, no substrates
recorded endpoint: IC50 (nM)

Take a look at these entries with their results.
CCCCC(=O)N1CCC(c2ccc(NC(=O)N3CC(c4cccnc4)C3)cc2)C1 (centres unmarked)	52.4
CC(C)(C)CN1CCC(c2ccc(NC(=O)N3CC(c4cccnc4)C3)cc2)CC1	4010
N#Cc1ccc(NC(=O)N2CC(c3cccnc3)C2)cc1	879
O=C(CCC(F)(F)F)N1CC[C@@H](Oc2ccc(NC(=O)N3CC(c4cccnc4)C3)cc2)C1	144

P = CCC(C)CC(=O)N1CC[C@@H](Oc2ccc(NC(=O)N3CC(c4cccnc4)C3)cc2)C1 (some centres unmarked)
Q = O=C(Nc1ccc(C2CCN(C(=O)c3nccs3)C2)cc1)N1CC(c2cccnc2)C1 (centres unmarked)
R = O=C(Nc1ccc(OC2CCN(C(=O)c3ccsc3)CC2)cc1)N1CC(c2cccnc2)C1
S = Cc1noc(C)c1C(=O)N1CC(Oc2ccc(NC(=O)N3CC(c4cccnc4)C3)cc2)C1
T = CN(C)CCC(=O)N1CC[C@@H](Oc2ccc(NC(=O)N3CC(c4cccnc4)C3)cc2)C1
Order the records by IC50, with each subsequent value no larger than the one before. In plain terms: list the labels in the order you were asked to. T, S, R, P, Q
(T: 507 nM, S: 90.5 nM, R: 56.1 nM, P: 35.2 nM, Q: 22.5 nM)

P = CC1(C(=O)N2CC[C@@H](Oc3ccc(NC(=O)N4CC(c5cccnc5)C4)cc3)C2)CC1
Q = CC(C)CC(=O)N1CC(c2ccc(NC(=O)N3CC(c4cccnc4)C3)cc2)C1
Between the entries labeled P and Q , whose measured IC50 is lower? Pick one and reply with its label. P
(P: 32.8 nM, Q: 48.6 nM)

I = CC(C)CCC(=O)N1CCC(c2ccc(NC(=O)N3CC(c4cccnc4)C3)cc2)C1 (centres unmarked)
II = O=C(Nc1ccc(O[C@@H]2CCN(C(=O)c3ccccc3)C2)cc1)N1CC(c2cccnc2)C1
Of the two listed items, which has the higher IC50? First: I Second: II Pick one and reply with its label. I
(I: 38.3 nM, II: 7.22 nM)

---

target: NAMPT (Homo sapiens, UniProt P43490); experiment: TR-FRET Binding Assay of NAMPT with PRPP; conditions: 2 nM NAMPT, 2 nM probe, 200 µM PRPP and 2.5 mM ATP, equilibrated 16 hours
recorded endpoint: IC50 (nM)

P = O=C(Nc1ccc(C2CCN(C(=O)c3ccco3)CC2)cc1)N1CC(c2cccnc2)C1 [Example 190]
Q = CC(=O)N[C@@H](CC(C)C)C(=O)N1CC(c2ccc(NC(=O)N3CC(c4cccnc4)C3)cc2)C1 [Example 209]
Between the entries labeled P and Q , whose measured IC50 is lower? Pick one and reply with its label. P
(P: 0.282 nM, Q: 0.694 nM)
